Tyrosine-protein kinase JAK1 (Homo sapiens) IC50, compiled from various sources.

{"columns": ["Molecule", "IC50"],
 "data": [
  ["N#CC[C@]1(n2cc(-c3ncnc4[nH]ccc34)cn2)C[C@H](N2CCN(C(=O)c3ccnc(C(F)(F)F)n3)CC2)C1", "< 10 nM"],
  ["CCS(=O)(=O)N1CC(CC#N)(n2cc(-n3c(-c4ccc(C)s4)nc4cnc5[nH]ccc5c43)cn2)C1", "100 to 1000 nM"],
  ["O=C(Nc1cn2c(-c3ccc(CN4CCC(F)(F)CC4)cc3)cccc2n1)C1CC1", "26.2 nM"],
  ["CCCS(=O)(=O)N1CCC(n2c(-c3ccccc3O)nc3cnc4[nH]ccc4c32)C1 (stereo not drawn)", "100 to 1000 nM"],
  ["C=CC(=O)Nc1cc2cc(c1)Nc1nccc(n1)-c1cccc(c1)COC/C=C/COC2", "106 nM"],
  ["N#CCN1CCC(n2c(-c3ccc(CO)o3)nc3cnc4[nH]ccc4c32)C1 (stereo not drawn)", "100 to 1000 nM"],
  ["CCS(=O)(=O)N1CC(CC#N)(n2cc(-n3c(-c4ccc(CO)o4)nc4cnc5[nH]ccc5c43)cn2)C1", "100 to 1000 nM"],
  ["CCCS(=O)(=O)N1CCC(n2c(-c3cccnc3N)nc3cnc4[nH]ccc4c32)C1 (stereo not drawn)", "100 to 1000 nM"],
  ["CCCS(=O)(=O)N1CCC(n2c([C@@H](C)O)nc3cnc4[nH]ccc4c32)C1 (stereo in doubt)", "100 to 1000 nM"],
  ["C[C@@H](O)c1nc2cnc3[nH]ccc3c2n1C1CCN(CCC#N)C1 (stereo partly drawn)", "10 to 100 nM"],
  ["N#CCC1(n2cc(-c3ncnc4[nH]ccc34)cn2)CN([C@H]2CC[C@@H](Oc3cc(CN4CC[C@@H](O)C4)cc(C(F)(F)F)n3)CC2)C1", "< 10 nM"],
  ["C[C@@H](O)c1nc2cnc3[nH]ccc3c2n1C1CCN(C(=O)OC(C)(C)C)C1 (stereo partly drawn)", "100 to 1000 nM"],
  ["Cc1ccc(-c2nc3cnc4[nH]ccc4c3n2-c2cnn(CCC#N)c2)o1", "100 to 1000 nM"],
  ["N#CCC(CN1CCN(C(=O)c2ccc(C#N)cc2F)CC1)n1cc(-c2ncnc3[nH]ccc23)cn1 (stereo not drawn)", "< 10 nM"],
  ["N#CCCn1cc(-n2c(C(F)(F)F)nc3cnc4[nH]ccc4c32)cn1", "100 to 1000 nM"],
  ["N#C[C@H]1CC[C@H](n2c(-c3cccc(O)c3)nc3cnc4[nH]ccc4c32)CC1 (stereo in doubt)", "10 to 100 nM"],
  ["C[C@@H](O)CNCc1cc(OC2CCN([C@H]3C[C@](CC#N)(n4cc(-c5ncnc6[nH]ccc56)cn4)C3)CC2)nc(C(F)(F)F)c1", "< 10 nM"],
  ["N#CCC(C1CCN(c2cccc(Cl)n2)C1)n1cc(-c2ncnc3[nH]ccc23)cn1 (single isomer, unassigned)", "< 10 nM"]
]}
